Parameter melting point: see the listing below.

Cc1cc(-c2nc[nH]n2)ccc1-c1cnc2[nH]c(=O)n(CCC3CCOCC3)c2n1 : 258 to 260 °C
CC#CC(O)(Cn1cncn1)c1ccc(Oc2ccc(Cl)cc2)cc1C(F)(F)F (stereo not given) : 137 °C
Cn1cc(C2=C(c3c4n(c5ccccc35)CCC(NC(=O)OC(C)(C)C)C4)C(=O)NC2=O)c2ccccc21 (stereo not given) : 153 to 155 °C
CN(C)c1ccc2nc(N)c(C#N)c(NCc3cccs3)c2c1 : 211 °C
Nc1cc2c(cc1N)OCOC2 : 156 to 158 °C
FC1CN(C(c2ccccc2)c2ccccc2)C1 : 154 to 156 °C

Input Cc1cncn1Cc1nc2ccccc2n1-c1ccccc1 . Output melting point: 100 to 102 °C

Recorded result, FC(F)(F)c1ccc(-c2cc(C(F)(F)F)n3ncc(C#Cc4cncnc4)c3n2)cc1 , melting point: 175 °C

For record O=c1ccn(-c2cccc(C(F)(F)F)c2)nc1-c1ccnn1-c1ccccc1 the listed melting point is 156 to 157 °C

Sure, the documented melting point for CCOCCOc1ccccc1COc1ccc2c(c1)C=C(C(=O)O)CCS2(=O)=O is 134 to 136 °C

Reported melting point for Cc1ccc(NC(=O)C(C)C)s1 was 95 to 97 °C

Recorded melting point (compound CC(N1CCC(Cc2ccccc2)CC1)C(O)(NC(=O)c1ccccc1)c1ccc(N)cc1 (stereo not given) ): 126 to 129 °C

Per the records, this compound ( Cc1nnc(-c2ccc3occ(-c4cnco4)c3c2)o1 ) has melting point equal to 184 to 185 °C

Recorded result, COc1ccc(N2CCN(c3c(C)c(C)c4c(c3C(C)C)CC(C)(C)O4)CC2)cc1 , melting point: 192 to 194 °C

Lab note: Nc1ncnc2c1c(-c1cc(O)cc(F)c1)nn2Cc1oc2ccccc2c(=O)c1-c1ccccc1 gave melting point of 260 to 262 °C
